target: HCV polymerase (NS5B570n-Con1) (Hepatitis C virus genotype 1b); construct: contains a 21 amino acid deletion at the C-terminus relative to the full-length HCV polymerase; 6-histidine (N); made in house; host or cells: E. coli strain BL21(DE) pLysS (pET17b); test: biochemical; design: species or system HCV Con1 strain; conditions: IC50 HCV NS5B RNA Polymerase Assay, values without asterisk; 20 nM NS5B570n-Con1 enzyme, 20 nM cIRES RNA template
I'd appreciate it if you could supply IC50 values for the items below.
# number only, unit nM dropped from output

Challenge: Reported IC50, compound COc1c(NC(=O)c2ccc(NCC(F)(F)F)nn2)cc(-c2ccc[nH]c2=O)cc1C(C)(C)C [I-248] : ____
Response given: 19

Challenge: Queued: CC1(C)COc2c(-c3ccc[nH]c3=O)cc(NC(=O)c3ccc(NS(C)(=O)=O)cc3)cc21 [II-4]
Response given: 33

Challenge: Queued: COc1c(C(=O)NC2CCCCC2CO)cc(-c2ccc[nH]c2=O)cc1C(C)(C)C (stereo not shown) [I-93]
Response given: 1900

Challenge: Queued: COc1c(C(=O)Nc2cccc(CO)c2C)cc(-c2ccc[nH]c2=O)cc1C(C)(C)C [I-78]
Response given: 1130

###

biological target: HCV polymerase (NS5B570n-Con1) (Hepatitis C virus genotype 1b, UniProt Q9WMX2); construct: contains a 21 amino acid deletion at the C-terminus relative to the full-length HCV polymerase; 6-histidine (N); made in house; host or cells: E. coli strain BL21(DE) pLysS (pET17b); experiment: biochemical; parameters: species or system HCV Con1 strain; details: read-out: IC50 HCV NS5B RNA Polymerase Assay; values without asterisk; 20 nM NS5B570n-Con1 enzyme, 20 nM cIRES RNA template;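 also: recombinant His-tagged enzyme from E. coli, radiolabeled nucleotide incorporation into acid-insoluble RNA read by scintillation after filtration, no-enzyme background subtracted, activity relative to positive control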
Measured property: pIC50
Please express pIC50 as -log10 of the molar concentration.

Challenge: Reported pIC50, compound COc1c(/C=C/c2ccc(NS(=O)(=O)C(F)(F)F)cc2)cc(-c2cc(F)c[nH]c2=O)cc1C(C)(C)C : ____
Response given: 8.00

Challenge: Queued: COc1c(/C=C/c2ccc(NS(C)(=O)=O)nn2)cc(-c2ccc[nH]c2=O)cc1C(C)(C)C
Response given: 8.05

Challenge: Queued: COc1c(CC(CO)c2ccc(NS(C)(=O)=O)cc2)cc(-c2ccc[nH]c2=O)cc1C(C)(C)C (stereo not drawn)
Response given: 8.22

Challenge: Queued: COc1c(/C=C/c2ccc(N)nn2)cc(-c2cc(F)c[nH]c2=O)cc1C(C)(C)C
Response given: 8.15

Challenge: Queued: COc1c(/C=C/c2ccc(N)nc2)cc(-c2cc(F)c[nH]c2=O)cc1C(C)(C)C
Response given: 7.92

Challenge: Queued: COc1c(/C=C/c2ccc(NS(C)(=O)=O)nn2)cc(-c2cc(F)c[nH]c2=O)cc1C(C)(C)C
Response given: 8.40

###

I'd appreciate it if you could supply melting point values for the items below.

Challenge: Reported melting point, compound COc1c(CC(CN2CCOCC2)c2ccc(NS(C)(=O)=O)cc2)cc(-c2ccc[nH]c2=O)cc1C(C)(C)C (centres unmarked) [I-193] : ____
Response given: 138 to 140 °C

Challenge: Queued: COc1c(C)cc(-c2ccc[nH]c2=O)cc1C(C)(C)C [I-29]
Response given: 176 to 178 °C

Challenge: Queued: COc1c(/C=C(\C#N)c2ccc(NS(C)(=O)=O)cc2)cc(-c2ccc[nH]c2=O)cc1C(C)(C)C [I-138]
Response given: 288 to 290 °C

Challenge: Queued: COc1c(CCc2ccc(F)cc2)cc(-c2ccc[nH]c2=O)cc1C(C)(C)C [I-21]
Response given: 157 to 158 °C

Challenge: Queued: CC(C)(C)c1cc(CCc2ccc(NS(C)(=O)=O)cc2)c(C#N)c(-c2ccc[nH]c2=O)c1 [I-87]
Response given: 128 to 130 °C

Challenge: Queued: COc1c(CC(C)(CN)c2ccc(NS(C)(=O)=O)cc2)cc(-c2ccc[nH]c2=O)cc1C(C)(C)C (centres unmarked) [I-197]
Response given: 240 to 242 °C

Challenge: Queued: CC(C)(C)c1cc(Oc2ccccc2)cc(-c2ccc[nH]c2=O)c1 [I-45]
Response given: 90 to 91 °C

Challenge: Queued: COc1c(NC(=O)c2ccc(N)cc2Cl)cc(-c2ccc[nH]c2=O)cc1C(C)(C)C [I-25]
Response given: 226 to 228 °C

Challenge: Queued: COc1c(C(=O)c2cccc(N)c2)cc(-c2ccc[nH]c2=O)cc1C(C)(C)C [I-59]
Response given: 145 to 150 °C

Challenge: Queued: COc1c(NC(=O)c2ccc(NS(C)(=O)=O)c(F)c2)cc(-c2ccc[nH]c2=O)cc1C(C)(C)C [I-121]
Response given: 270 to 272 °C

Challenge: Queued: COc1c(C(=O)c2cccc(NS(C)(=O)=O)c2)cc(-c2ccc[nH]c2=O)cc1C(C)(C)C [I-100]
Response given: 261 to 263 °C

Challenge: Queued: COc1c(CC(C)(C#N)c2ccc(NS(C)(=O)=O)cc2)cc(-c2ccc[nH]c2=O)cc1C(C)(C)C (centres unmarked) [I-196]
Response given: 158 to 160 °C

Challenge: Queued: Cc1ccc(-c2cc(C(C)(C)C)cc(/C=C/c3ccc(NS(C)(=O)=O)cc3)c2O)c(=O)[nH]1 [I-140]
Response given: 258 to 260 °C

Challenge: Queued: COc1c(C(=O)c2cccc(F)c2)cc(-c2ccc[nH]c2=O)cc1C(C)(C)C [I-49]
Response given: 209 to 210 °C

Challenge: Queued: COc1ccc(-c2ccc[nH]c2=O)c(F)c1C(C)(C)C [I-56]
Response given: 164.5 to 166 °C

Challenge: Queued: Cc1cc(-c2cc(F)c[nH]c2=O)cc(C(C)(C)C)c1 [I-53]
Response given: 244 to 246 °C

Challenge: Queued: CC(C)(C)c1cc(CCc2ccc(NS(C)(=O)=O)cc2)cc(-c2ccc[nH]c2=O)c1 [I-74]
Response given: 211 to 213 °C

Challenge: Queued: COc1c(/C=C/c2ccccc2)cc(-c2ccc[nH]c2=O)cc1C(C)(C)C [I-144]
Response given: 183 to 185 °C

Challenge: Queued: CCc1cc(-c2ccc[nH]c2=O)cc(C(C)(C)C)c1OC [I-30]
Response given: 213 to 214 °C

Challenge: Queued: COc1c(CCc2ccc(N)cc2)cc(-c2ccc[nH]c2=O)cc1C1(C)CC1 [I-99]
Response given: 209 to 211 °C

Challenge: Queued: COc1c(Cc2ccccc2)cc(-c2ccc[nH]c2=O)cc1C(C)(C)C [I-48]
Response given: 202.6 to 204.3 °C

Challenge: Queued: CC(C)(C)c1cc(/C=C/c2ccc(NS(C)(=O)=O)cc2)cc(-c2cc(F)c[nH]c2=O)c1 [I-148]
Response given: 210 to 212 °C

Challenge: Queued: COc1c(CCc2ccc(NS(C)(=O)=O)nc2)cc(-c2ccc[nH]c2=O)cc1C(C)(C)C [I-123]
Response given: 140 to 142 °C

Challenge: Queued: Cc1cc(C(C)(C)C)cc(-c2ccc[nH]c2=O)c1O [I-11]
Response given: 207 to 208.5 °C

Challenge: Queued: CCOc1ccc(-c2ccc[nH]c2=O)cc1C(C)(C)C [I-5]
Response given: 201 to 202 °C

Challenge: Queued: COc1cc(-c2ccc[nH]c2=O)cc(C(C)(C)C)c1OC [I-26]
Response given: 206.3 to 207.1 °C

Challenge: Queued: CC(C)(C)c1cc(CCc2ccc(NS(C)(=O)=O)cc2)c(C(N)=O)c(-c2ccc[nH]c2=O)c1 [I-122]
Response given: 170 to 172 °C

Challenge: Queued: COc1c(O)cc(-c2ccc[nH]c2=O)cc1C(C)(C)C [I-23]
Response given: 214 to 215 °C

Challenge: Queued: CC(C)(C)c1cc(CCc2ccc(NS(C)(=O)=O)cc2)cc(-c2cc(F)c[nH]c2=O)c1 [I-94]
Response given: 191 to 193 °C

Challenge: Queued: CC(C)(C)c1cc(/C=C/c2ccc(NS(C)(=O)=O)cc2)cc(-c2ccc[nH]c2=O)c1 [I-141]
Response given: 260 to 262 °C

Challenge: Queued: COc1c(/C=C(\C)c2ccc(NS(C)(=O)=O)cc2)cc(-c2ccc[nH]c2=O)cc1C(C)(C)C [I-139]
Response given: 292 to 294 °C

Challenge: Queued: COc1c(CCc2ccc(NS(C)(=O)=O)nn2)cc(-c2ccc[nH]c2=O)cc1C(C)(C)C [I-127]
Response given: 218 to 220 °C

Challenge: Queued: CC(C)(C)c1cc(/C=C/c2ccc(NS(C)(=O)=O)cc2)c(O)c(-c2ccc[nH]c2=O)c1 [I-137]
Response given: 180 to 182 °C

Challenge: Queued: CC(C)(C)c1cc(-c2ccccc2)c(O)c(-c2ccc[nH]c2=O)c1 [I-15]
Response given: 235.8 to 237 °C

Challenge: Queued: CC(C)(C)c1cc(CCc2ccc(NS(C)(=O)=O)cc2)c(N)c(-c2ccc[nH]c2=O)c1 [I-98]
Response given: 140 to 142 °C
